- systemUnderTest: Grp94 (Homo sapiens (Human), UniProt P14625)
- Sequence (P14625 22-803, species assumed): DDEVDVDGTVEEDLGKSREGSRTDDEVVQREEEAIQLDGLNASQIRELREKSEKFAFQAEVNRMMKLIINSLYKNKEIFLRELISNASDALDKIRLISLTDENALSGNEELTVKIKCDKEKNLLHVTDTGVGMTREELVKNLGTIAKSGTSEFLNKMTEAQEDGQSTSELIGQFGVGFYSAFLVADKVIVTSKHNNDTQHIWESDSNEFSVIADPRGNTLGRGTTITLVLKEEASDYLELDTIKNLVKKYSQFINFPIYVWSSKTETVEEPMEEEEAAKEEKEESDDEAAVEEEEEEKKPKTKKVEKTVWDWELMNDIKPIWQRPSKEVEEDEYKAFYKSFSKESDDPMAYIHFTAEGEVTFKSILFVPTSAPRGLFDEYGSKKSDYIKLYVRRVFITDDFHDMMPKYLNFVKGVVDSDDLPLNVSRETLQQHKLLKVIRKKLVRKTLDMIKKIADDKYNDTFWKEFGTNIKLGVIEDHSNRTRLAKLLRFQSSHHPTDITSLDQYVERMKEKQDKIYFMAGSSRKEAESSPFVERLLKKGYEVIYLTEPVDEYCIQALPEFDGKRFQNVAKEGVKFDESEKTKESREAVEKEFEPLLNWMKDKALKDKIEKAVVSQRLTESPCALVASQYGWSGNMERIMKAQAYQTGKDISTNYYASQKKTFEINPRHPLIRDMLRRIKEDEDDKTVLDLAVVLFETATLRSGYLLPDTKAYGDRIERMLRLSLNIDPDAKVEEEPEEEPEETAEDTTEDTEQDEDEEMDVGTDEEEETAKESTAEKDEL
pKd: −log10 of the molar value.
reportedMetric: pKd

>>> endpointvalue("CCCc1cc2cc(-n3nc(C)c4c3CC(C)(C)CC4=O)cc(N[C@H]3CC[C@H](O)CC3)c2c(=O)[nH]1")
"< 5.30"

====

- systemUnderTest: Hsp90β (Homo sapiens (Human), UniProt P08238)
- Sequence (P08238 whole entry): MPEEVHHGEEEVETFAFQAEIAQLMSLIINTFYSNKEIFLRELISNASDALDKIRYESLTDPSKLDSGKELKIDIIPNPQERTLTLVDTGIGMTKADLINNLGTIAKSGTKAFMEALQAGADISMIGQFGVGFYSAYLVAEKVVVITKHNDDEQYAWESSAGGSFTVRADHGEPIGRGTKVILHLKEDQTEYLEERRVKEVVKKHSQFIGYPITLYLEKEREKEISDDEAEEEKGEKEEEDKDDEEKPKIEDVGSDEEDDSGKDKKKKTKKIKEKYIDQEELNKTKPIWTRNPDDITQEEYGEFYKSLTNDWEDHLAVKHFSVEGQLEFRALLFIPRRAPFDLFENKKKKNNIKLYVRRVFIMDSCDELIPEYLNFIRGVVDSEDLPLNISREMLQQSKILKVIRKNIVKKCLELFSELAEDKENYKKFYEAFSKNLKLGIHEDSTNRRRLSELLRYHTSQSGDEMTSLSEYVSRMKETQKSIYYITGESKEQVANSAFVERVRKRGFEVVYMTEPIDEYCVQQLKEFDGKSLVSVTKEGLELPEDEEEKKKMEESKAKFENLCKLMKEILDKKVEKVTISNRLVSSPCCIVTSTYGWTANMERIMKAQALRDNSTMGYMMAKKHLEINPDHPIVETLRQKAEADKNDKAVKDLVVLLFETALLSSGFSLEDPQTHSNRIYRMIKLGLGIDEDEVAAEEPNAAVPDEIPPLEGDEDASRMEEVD
- methodSummary: fluorescence polarization (FP) assay, competitive displacement of FITC labeled Geldanamycin
- Assay type: binding
- conditionDescription: FP assay
- Protocol: Once prepared, the compounds were evaluated for their binding affinities against the cytosolic isoforms, Hsp90α and Hsp90β by measuring their ability to competitively displace FITC labeled Geldanamycin (GDA) in a fluorescence polarization assay (apparent Kd's listed in Table 1). […] The alkyne (4k) was investigated to determine whether a linear substituent could project into the subpocket and affect selectivity.
reportedMetric: selectivity for Hsp90β over Hsp90α (in words)

>>> endpointvalue("Cc1nn(-c2cc(N[C@H]3CC[C@H](O)CC3)c3c(=O)[nH]c(CO)cc3c2)c2c1C(=O)CC(C)(C)C2")
"loss of selectivity"
>>> endpointvalue("COCc1cc2cc(-n3nc(C)c4c3CC(C)(C)CC4=O)cc(N[C@H]3CC[C@H](O)CC3)c2c(=O)[nH]1")
"loss of selectivity"

====

- systemUnderTest: UniProtKB Q12931
- Sequence (Q12931 60-704): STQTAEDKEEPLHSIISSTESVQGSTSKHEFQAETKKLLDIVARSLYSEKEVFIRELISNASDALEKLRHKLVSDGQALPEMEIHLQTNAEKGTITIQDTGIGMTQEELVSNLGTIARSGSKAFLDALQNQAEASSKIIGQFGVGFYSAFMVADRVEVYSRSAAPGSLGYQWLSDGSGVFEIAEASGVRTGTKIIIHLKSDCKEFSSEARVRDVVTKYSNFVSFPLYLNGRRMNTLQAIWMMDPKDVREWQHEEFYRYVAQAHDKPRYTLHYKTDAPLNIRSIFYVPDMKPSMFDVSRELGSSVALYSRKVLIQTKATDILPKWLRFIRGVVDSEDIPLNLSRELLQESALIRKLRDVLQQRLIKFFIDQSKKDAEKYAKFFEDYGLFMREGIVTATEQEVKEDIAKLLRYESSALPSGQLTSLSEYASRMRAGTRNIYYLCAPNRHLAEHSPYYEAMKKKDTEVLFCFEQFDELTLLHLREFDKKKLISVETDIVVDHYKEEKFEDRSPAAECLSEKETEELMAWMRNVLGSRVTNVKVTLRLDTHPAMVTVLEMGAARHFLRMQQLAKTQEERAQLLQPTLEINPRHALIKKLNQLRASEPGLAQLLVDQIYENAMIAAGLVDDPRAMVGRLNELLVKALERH
- methodSummary: binding affinity towards Trap-1
reportedMetric: Kd

>>> endpointvalue("CCCc1cc2cc(-n3nc(C)c4c3CC(C)(C)CC4=O)cc(N[C@H]3CC[C@H](O)CC3)c2c(=O)[nH]1 [Compound 4d]")
"> 5 µM"

====

- systemUnderTest: UniProt P08238
- methodSummary: fluorescence polarization (FP) assay, competitive displacement of FITC labeled Geldanamycin
- Format: binding
- conditionDescription: FP assay
reportedMetric: affinity for Hsp90β (in words)

>>> endpointvalue("CCCc1cc2cc(-n3nc(C)c4c3CC(C)(C)CC4=O)cc(N3CCN(C)CC3)c2c(=O)[nH]1")
"decrease in affinity"
>>> endpointvalue("Cc1nn(-c2cc(N[C@H]3CC[C@H](O)CC3)c3c(=O)[nH]c(CC(C)C)cc3c2)c2c1C(=O)CC(C)(C)C2")
"decrease in affinity"

====

- systemUnderTest: Hsp90β (Homo sapiens (Human), UniProt P08238)
- methodSummary: fluorescence polarization (FP) assay, competitive displacement of FITC labeled Geldanamycin
- Format: binding
pKd: −log10 of the molar value.
reportedMetric: pKd

>>> endpointvalue("CCCCc1cc2cc(-n3nc(C)c4c3CC(C)(C)CC4=O)cc(N[C@H]3CC[C@H](O)CC3)c2c(=O)[nH]1 [Compound 4e]")
6.73
>>> endpointvalue("CCCc1cc2cc(-n3nc(C)c4c3CC(C)(C)CC4=O)cc(N3CCN(C(=O)OC(C)(C)C)CC3)c2c(=O)[nH]1 [Compound 5e]")
6.33

====

- systemUnderTest: Hsp90α (Homo sapiens (Human), UniProt P07900)
- methodSummary: fluorescence polarization (FP) assay, competitive displacement of FITC labeled Geldanamycin
- Assay type: binding
- conditionDescription: apparent Kd, FP assay; read-out: Hsp90α Kd
pKd: −log10 of the molar value.
reportedMetric: pKd

>>> endpointvalue("CCc1cc2cc(-n3nc(C)c4c3CC(C)(C)CC4=O)cc(N[C@H]3CC[C@H](O)CC3)c2c(=O)[nH]1")
6.74
>>> endpointvalue("CCCc1cc2cc(-n3nc(C)c4c3CC(C)(C)CC4=O)cc(NC3CCN(C)CC3)c2c(=O)[nH]1")
4.77
>>> endpointvalue("Cc1cc2cc(-n3nc(C)c4c3CC(C)(C)CC4=O)cc(N[C@H]3CC[C@H](O)CC3)c2c(=O)[nH]1")
6.53
>>> endpointvalue("CCCc1cc2cc(-n3nc(C)c4c3CC(C)(C)CC4=O)cc(N3CCN(C)CC3)c2c(=O)[nH]1")
5.07
>>> endpointvalue("COCc1cc2cc(-n3nc(C)c4c3CC(C)(C)CC4=O)cc(N[C@H]3CC[C@H](O)CC3)c2c(=O)[nH]1")
6.51
>>> endpointvalue("Cc1nn(-c2cc(N[C@H]3CC[C@H](O)CC3)c3c(=O)[nH]c(C4CC4)cc3c2)c2c1C(=O)CC(C)(C)C2")
5.73
>>> endpointvalue("Cc1nn(-c2cc(N[C@H]3CC[C@H](O)CC3)c3c(=O)[nH]c(C(C)C)cc3c2)c2c1C(=O)CC(C)(C)C2")
6.76
>>> endpointvalue("C#Cc1cc2cc(-n3nc(C)c4c3CC(C)(C)CC4=O)cc(N[C@H]3CC[C@H](O)CC3)c2c(=O)[nH]1")
6.42
>>> endpointvalue("Cc1nn(-c2cc(N[C@H]3CC[C@H](O)CC3)c3c(=O)[nH]c(CO)cc3c2)c2c1C(=O)CC(C)(C)C2")
6.08

====

- System: K562 leukemia cells
- methodSummary: cells
- conditionDescription: Homo sapiens
reportedMetric: IC50 (nM)

>>> endpointvalue("CCCC1Cc2cc(-n3nc(C)c4c3CC(C)(C)CC4=O)cc(N[C@H]3CC[C@H](O)CC3)c2C(=O)N1 (stereo partly shown) [Compound 6a]")
498

====

- systemUnderTest: Hsp90β (Homo sapiens (Human), UniProt P08238)
- methodSummary: fluorescence polarization (FP) assay, competitive displacement of FITC labeled Geldanamycin
- Type: binding
- conditionDescription: apparent Kd, FP assay; read-out: Hsp90β Kd
Please map values of Kd to classes as shown: lo (below 200 nM), med (200 nM to below 500 nM), hi (500 nM or more)

>>> labelclass("CCCc1cc2cc(-n3nc(C)c4c3CC(C)(C)CC4=O)cc(N(C)CCN(CC)CC)c2c(=O)[nH]1 [Compound 5g]")
"hi"
>>> labelclass("CCCc1cc2cc(-n3nc(C)c4c3CC(C)(C)CC4=O)cc(N3CCOCC3)c2c(=O)[nH]1 [Compound 5a]")
"lo"
>>> labelclass("Cc1nn(-c2cc(N[C@H]3CC[C@H](O)CC3)c3c(=O)[nH]c(CC(C)C)cc3c2)c2c1C(=O)CC(C)(C)C2 [Compound 4g]")
"med"
>>> labelclass("CCCc1cc2cc(-n3nc(C)c4c3CC(C)(C)CC4=O)cc(N3CCN(C)CC3)c2c(=O)[nH]1 [Compound 5c]")
"med"
>>> labelclass("CCc1cc2cc(-n3nc(C)c4c3CC(C)(C)CC4=O)cc(N[C@H]3CC[C@H](O)CC3)c2c(=O)[nH]1 [Compound 4b]")
"lo"
>>> labelclass("Cc1nn(-c2cc(N[C@H]3CC[C@H](O)CC3)c3c(=O)[nH]c(CO)cc3c2)c2c1C(=O)CC(C)(C)C2 [Compound 4j]")
"med"
>>> labelclass("CCCc1cc2cc(-n3nc(C)c4c3CC(C)(C)CC4=O)cc(N3CCNCC3)c2c(=O)[nH]1 [Compound 5d]")
"hi"
>>> labelclass("COCc1cc2cc(-n3nc(C)c4c3CC(C)(C)CC4=O)cc(N[C@H]3CC[C@H](O)CC3)c2c(=O)[nH]1 [Compound 4i]")
"lo"
>>> labelclass("Cc1nn(-c2cc(N[C@H]3CC[C@H](O)CC3)c3c(=O)[nH]c(C4CC4)cc3c2)c2c1C(=O)CC(C)(C)C2 [Compound 4h]")
"hi"
>>> labelclass("C#Cc1cc2cc(-n3nc(C)c4c3CC(C)(C)CC4=O)cc(N[C@H]3CC[C@H](O)CC3)c2c(=O)[nH]1 [Compound 4k]")
"med"

====

- systemUnderTest: UniProt P08238
- methodSummary: fluorescence polarization (FP) assay, competitive displacement of FITC labeled Geldanamycin
- Format: binding
- conditionDescription: apparent Kd, FP assay; read-out: Hsp90β Kd
pKd: −log10 of the molar value.
reportedMetric: pKd

>>> endpointvalue("CCCCc1cc2cc(-n3nc(C)c4c3CC(C)(C)CC4=O)cc(N[C@H]3CC[C@H](O)CC3)c2c(=O)[nH]1")
6.81
>>> endpointvalue("Cc1nn(-c2cc(N[C@H]3CC[C@H](O)CC3)c3c(=O)[nH]c(C(C)C)cc3c2)c2c1C(=O)CC(C)(C)C2")
7.29
>>> endpointvalue("Cc1cc2cc(-n3nc(C)c4c3CC(C)(C)CC4=O)cc(N[C@H]3CC[C@H](O)CC3)c2c(=O)[nH]1")
7.00

====

- Tested on: HT1376 bladder cancer cells
- methodSummary: cells
- conditionDescription: Homo sapiens, HT-1376
pIC50: −log10 of the molar value.
reportedMetric: pIC50

>>> endpointvalue("CCCC1Cc2cc(-n3nc(C)c4c3CC(C)(C)CC4=O)cc(N[C@H]3CC[C@H](O)CC3)c2C(=O)N1 (stereo partly shown)")
6.15
